# Tested on: RXF 393 renal
# EXPERIMENT NOTES: NCI-60 one-dose screen, 48 h (100 = growth as untreated, 0 = no growth, -100 = all killed)
# MEASUREMENT CONDITIONS: 10 µM unless noted
Compounds without any hit were thinned out: in the full panel of roughly 83,000, 20% have a hit.
QUANTITY KIND: growth (%)
Give the value in % but do not write % after it.

| MOLECULE | READING UNIT | growth |
| --- | --- | --- |
| Cc1occc1C(=O)NN1C(=O)/C(=C/C=C/c2ccc([N+](=O)[O-])o2)SC1=S | % | -88.1 |

Short answer for `CCCSc1nc(Nc2ccc(S(N)(=O)=O)cc2)c(C#N)c(-c2ccc(Cl)cc2)n1` : growth was -43.4

Short answer for `S=C(Nc1ccc(OCc2nc3ccccc3[nH]2)cc1)NC1CCCCC1` : growth was 147

Short answer for `Cc1ccc(S(=O)(=O)c2nc(S(=O)(=O)c3ccc(C)cc3)c(N3CCN(C)CC3)s2)cc1` : growth was 30.3

Short answer for `Nc1nnc(-c2c[nH]c3ncc(Br)cc23)c(-c2c[nH]c3ccc(F)cc23)n1` : growth was 40.9

Short answer for `CCCCc1c(Nn2cnnn2)no[n+]1[O-]` : growth was 39.5

Short answer for `CCN(CC)C(=O)N/C(N)=N/c1nc2ccccc2s1` : growth was 58.5

Short answer for C=C1CCC2C3(C)COC(c4cc(F)cc(F)c4)OC3CCC2(C)C1CC(O)C1=CCOC1=O (stereo not given) : growth was 56.4

Short answer for `Nc1n[nH]c2cccc(C#Cc3cccc(NC(=O)c4cccc(Cl)c4)c3)c12` : growth was -14.7

Short answer for `O=c1c2ccccc2nc(-c2ccccc2)n1/N=C/c1ccc2ccccc2c1` : growth was 81.2
